# TARGET: T1, recombinant OSMR protein (Sino Biologicals, 11226-H08H), extracellular domain of OSMR (UniProt Q99650 28-740)
# T1 construct: extracellular domain; also called OSMR antigen
# T1 sequence (looked up): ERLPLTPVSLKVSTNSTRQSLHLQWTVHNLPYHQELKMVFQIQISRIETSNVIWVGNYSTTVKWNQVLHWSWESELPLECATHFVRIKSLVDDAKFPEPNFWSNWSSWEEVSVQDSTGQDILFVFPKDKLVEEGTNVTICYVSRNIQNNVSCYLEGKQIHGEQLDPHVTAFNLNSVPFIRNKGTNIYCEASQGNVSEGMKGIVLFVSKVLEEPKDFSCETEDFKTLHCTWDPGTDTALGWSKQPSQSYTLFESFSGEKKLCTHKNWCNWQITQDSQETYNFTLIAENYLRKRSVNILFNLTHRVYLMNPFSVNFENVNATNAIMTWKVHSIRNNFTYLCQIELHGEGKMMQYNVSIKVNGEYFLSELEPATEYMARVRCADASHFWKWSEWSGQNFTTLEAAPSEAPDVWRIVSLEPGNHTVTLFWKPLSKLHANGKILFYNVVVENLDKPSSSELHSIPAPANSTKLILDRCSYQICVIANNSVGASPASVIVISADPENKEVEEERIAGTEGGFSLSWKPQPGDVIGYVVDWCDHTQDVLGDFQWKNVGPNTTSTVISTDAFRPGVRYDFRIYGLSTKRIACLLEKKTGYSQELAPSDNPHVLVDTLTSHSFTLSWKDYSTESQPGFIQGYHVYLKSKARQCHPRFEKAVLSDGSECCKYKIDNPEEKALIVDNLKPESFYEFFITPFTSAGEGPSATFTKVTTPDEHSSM
# PROTOCOL TEXT: screening of full-length IgG1 clones on recombinant OSMR extracellular domain
PROPERTY LABEL: binding result

| BINDER | REPORTED MEASUREMENT |
| --- | --- |
| B16 monoclonal antibody (antibody, V domains shown, also called B016; B16 mAb) VH: QVELVESGGGVVRPGGSLRLSCAASGFTFDDYGMSWVRQAPGKGLEWVSGINWNGGSTGYADSVKGRFTISRDNAKNSLYLQMNSLRAEDTALYHCARVNYDSSGLRGAFDIWGQGTTVTVSS VL: DVQMTQSPSSLSASVGDRVTITCQASQDISNYLNWYQQKPGKAPKLLIYDASNLETGVPSRFSGSGSGTDFTFTISSLQPEDIATYYCQQYDNLPTFGQGTRLEIK | binds |
| B17 monoclonal antibody (antibody, V domains shown, also called B17 mAb) VH: QVELQESGPGLVQPSGTLSLTCAVSGGSMGSSNWWSWVRQPPGKGLEWIGEVYHTGSTNYNPSLRSRVTISVDKSKKQFSLELTSVTAADTAVYFCARDLTVTGSFDIWGQGTMVTVSS VL: QAVVTQPRSVSGSPGQSVTISCTGSSSDVGAYNYVSWYQQHPGKAPKLIISDVSDWPSGVPDRFSGSKSGNTASLTISGLQADDEADYYCFSYAGNYNWVFGGGTKLTVL | binds |
| H11 monoclonal antibody (antibody, V domains shown, also called H11 mAb) VH: EVQLVQSGPEVRKPGASVQISCKASGYTFTTSYIHWVRQAPGQGLEWLGLVNPNDGSTTYTQNFQGRVTMTSDTSTSTVYMELSRVTYADTAVYYCAKDIRDYVWGTYRYESAFDIWGQGTTVTVSS VL: QAVVTQPPSVSVSPGQTASITCSGDKLGDKYVSWYQQKPGQPPILVMYQDNRRPSGIPERFSGSNSGNTATLTISGTQAMDEADYYCQTWDSSTASYVFGTGTKVTVL | binds |
